Just for reference, patent US12378248B2 is where these values come from.

experiment: Plasma protein binding at 10 μM; type: in vitro ADME, human; conditions: unbound percent ± standard deviation
valueKind: human, % free (%)
# unit: % | format: bare number

O[C@H]1[C@H](n2cnc3c(N[C@H]4C[C@H]5CC[C@@H]4C5)nc(Cl)nc32)[C@H]2C[C@@]2(CCl)[C@H]1O [Compound 31] : 4.04
OC[C@H]1O[C@@H](n2cnc3c(NC(C4CCC4)C4CCC4)nc(Cl)nc32)[C@H](O)C1O (stereo in doubt) [Compound 12] : 5.81
OC[C@H]1O[C@@H](n2cnc3c(NC(C4CCC4)C4CCC4)ncnc32)[C@H](O)C1O (stereo in doubt) [Compound 9] : 6.05

We now examine a further compound.
// sample OC[C@@]12C[C@@H]1[C@@H](n1cnc3c(NC(C4CCC4)C4CCC4)ncnc31)[C@H](O)[C@@H]2O [Compound 24] , its human, % free was 14.6

---

Molecular target: hA3AR (Homo sapiens, UniProt P0DMS8)
Construct: expressed in transfected cells; host or cells: CHO
Sequence (P0DMS8 1-318): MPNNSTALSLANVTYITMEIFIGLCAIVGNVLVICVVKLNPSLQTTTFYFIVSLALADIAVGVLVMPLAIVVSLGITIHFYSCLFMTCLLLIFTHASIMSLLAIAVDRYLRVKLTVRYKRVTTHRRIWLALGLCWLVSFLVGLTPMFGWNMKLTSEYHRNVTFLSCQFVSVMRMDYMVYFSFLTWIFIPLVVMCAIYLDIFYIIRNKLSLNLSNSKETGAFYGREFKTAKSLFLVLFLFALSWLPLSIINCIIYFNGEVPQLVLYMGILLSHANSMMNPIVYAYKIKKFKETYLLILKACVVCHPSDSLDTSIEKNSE
Experiment: Radioligand binding in membranes of CHO cells expressing hA3AR
Conditions: read-out: A3AR % inhibition or Ki
inhibition at 10 µM listing for selected compounds.
# unit: % | format: bare number

NC(=O)c1ncn([C@@H]2O[C@H](CO)[C@@H](O)[C@H]2O)n1 [Compound 38, ribavirin, reference compound] : 16

// sample O[C@H]1[C@H](n2cnc3c(NC(C4CCC4)C4CCC4)ncnc32)[C@H]2C[C@@]2(CCl)[C@H]1O [Compound 26] , its inhibition at 10 µM was 49

// sample NC(=O)c1ncn([C@H]2[C@H](O)[C@H](O)[C@]3(CO)C[C@H]23)n1 [Compound 40] , its inhibition at 10 µM was 41

// sample OC[C@@]12C[C@@H]1[C@@H](n1cnc3c(NC(C4CCC4)C4CCC4)ncnc31)[C@H](O)[C@@H]2O [Compound 24] , its inhibition at 10 µM was 51

---

molecular target: sigma receptor σ2 (UniProt Q5BJF2); assay: Off-target interaction determined by the PDSP; type: binding, human; conditions: read-out: Off-target, receptor (h, unless noted) (Ki, μM): σ2
Ki listing for selected compounds.
# unit: µM | format: bare number

These solved cases illustrate the format of a correct answer.
Nc1ncnc2c1ncn2[C@@H]1O[C@H](C(=O)O)[C@@H](O)[C@H]1O : 0.796
Nc1nc(Cl)nc2c1ncn2[C@H]1[C@H](O)[C@H](O)[C@]2(CCl)C[C@H]12 : 2.55
O[C@H]1[C@H](n2cnc3c(NC(C4CCC4)C4CCC4)nc(Cl)nc32)[C@H]2C[C@@]2(CSc2ccccc2F)[C@H]1O : 0.583
O[C@@H]1[C@H](O)[C@@H](CCl)O[C@H]1n1cnc2c(NC(C3CCC3)C3CCC3)ncnc21 : 0.662

We now examine a further compound.
Known value: sigma receptor σ2 (UniProt Q5BJF2) Ki of the compound "NC(=O)c1ncn([C@H]2[C@H](O)[C@H](O)[C@]3(CO)C[C@H]23)n1" equals 2.09
